Recorded values, source patent US20230134571A1.

- tested.on: HIV Env, isolate Ce703010054_2A2 (HIV)
- test.details: cell-based or functional assay

| binder | IC80 (µg/ml) with constrains |
| --- | --- |
| PGDM1400 (antibody, V domains shown) VH: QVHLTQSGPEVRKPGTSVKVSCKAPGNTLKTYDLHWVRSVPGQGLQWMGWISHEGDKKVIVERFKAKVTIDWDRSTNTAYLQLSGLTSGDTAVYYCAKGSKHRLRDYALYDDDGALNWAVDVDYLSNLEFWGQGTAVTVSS VL: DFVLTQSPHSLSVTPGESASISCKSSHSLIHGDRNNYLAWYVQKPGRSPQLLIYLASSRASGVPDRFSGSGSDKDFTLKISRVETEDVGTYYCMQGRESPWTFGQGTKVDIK | 0.057 µg/mL |
| ePGDM9 (antibody, V domains shown) VH: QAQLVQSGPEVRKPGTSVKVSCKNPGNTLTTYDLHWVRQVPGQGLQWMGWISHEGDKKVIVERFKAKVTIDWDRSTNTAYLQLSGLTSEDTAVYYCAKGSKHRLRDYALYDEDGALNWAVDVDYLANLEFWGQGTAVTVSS VL: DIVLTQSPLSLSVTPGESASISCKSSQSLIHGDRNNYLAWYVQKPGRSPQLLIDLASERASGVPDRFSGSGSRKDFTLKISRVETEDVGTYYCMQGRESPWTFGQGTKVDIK | 0.032 µg/mL |
| ePGDM5 (antibody, V domains shown) VH: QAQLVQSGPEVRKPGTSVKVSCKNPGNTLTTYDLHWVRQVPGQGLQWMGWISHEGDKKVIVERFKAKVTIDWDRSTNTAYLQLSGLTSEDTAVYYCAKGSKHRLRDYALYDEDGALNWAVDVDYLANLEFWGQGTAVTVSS VL: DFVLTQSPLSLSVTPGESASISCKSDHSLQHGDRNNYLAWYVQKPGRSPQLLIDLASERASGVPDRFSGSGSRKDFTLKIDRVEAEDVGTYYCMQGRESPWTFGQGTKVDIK | 0.034 µg/mL |
| ePGDM13 (antibody, V domains shown) VH: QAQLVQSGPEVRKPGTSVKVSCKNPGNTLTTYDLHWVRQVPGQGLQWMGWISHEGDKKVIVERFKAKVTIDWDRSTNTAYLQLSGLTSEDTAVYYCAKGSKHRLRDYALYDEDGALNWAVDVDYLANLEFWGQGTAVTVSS VL: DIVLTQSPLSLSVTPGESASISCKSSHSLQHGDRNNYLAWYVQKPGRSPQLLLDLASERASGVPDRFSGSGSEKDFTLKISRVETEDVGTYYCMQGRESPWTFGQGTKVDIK | 0.031 µg/mL |
